# credit: patent US11970498B2

Parameter: pIC50. Scope: all listed entries.
# target: CDK1/Cyclin B1, GST-tag (Homo sapiens, UniProt P06493)
# Construct: GST
# Sequence (P06493 whole entry): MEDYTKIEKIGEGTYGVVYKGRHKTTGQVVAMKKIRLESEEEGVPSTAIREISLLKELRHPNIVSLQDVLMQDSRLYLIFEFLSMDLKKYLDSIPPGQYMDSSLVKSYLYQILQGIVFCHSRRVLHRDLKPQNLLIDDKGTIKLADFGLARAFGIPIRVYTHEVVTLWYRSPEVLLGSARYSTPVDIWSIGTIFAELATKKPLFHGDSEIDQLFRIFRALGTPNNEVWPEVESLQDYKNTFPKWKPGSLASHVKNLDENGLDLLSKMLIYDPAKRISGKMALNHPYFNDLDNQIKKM
# Sequence (P14635 whole entry partner): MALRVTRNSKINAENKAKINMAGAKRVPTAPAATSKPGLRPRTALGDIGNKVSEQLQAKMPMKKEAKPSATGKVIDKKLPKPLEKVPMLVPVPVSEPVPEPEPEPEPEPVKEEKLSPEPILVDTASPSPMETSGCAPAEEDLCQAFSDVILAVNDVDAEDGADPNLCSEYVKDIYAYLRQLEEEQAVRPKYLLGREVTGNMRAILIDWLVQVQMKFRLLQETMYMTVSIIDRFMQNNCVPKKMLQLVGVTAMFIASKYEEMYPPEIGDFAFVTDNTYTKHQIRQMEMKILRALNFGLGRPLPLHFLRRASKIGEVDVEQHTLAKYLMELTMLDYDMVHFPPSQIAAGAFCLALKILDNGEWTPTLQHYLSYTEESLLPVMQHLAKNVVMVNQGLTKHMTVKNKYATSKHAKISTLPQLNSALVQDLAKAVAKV
# measurement.description: CDK1/Cyclin B1 biochemical phosphorylation assay (Caliper mobility shift)
# recorded.conditions: apparent IC50; 1.0 mM ATP or ATP Km; 1.5 nM enzyme; 25° C.
pIC50: −log10 of the molar value.

FC(F)Oc1cc(Nc2cnc3cnn([C@@H](c4cccnc4)C4CC4)c3n2)n[nH]1 (single isomer, unassigned) [Example 148]	≤ 6.30

q: Please give the measured pIC50 for this compound: N#C[C@@]1(Cn2ncc3ncc(Nc4cc(OC(F)F)[nH]n4)nc32)CCOC1 (single isomer, unassigned) [Example 169]
a: ≤ 6.30

q: Please give the measured pIC50 for this compound: C[C@@H](c1cccnc1Cl)n1ncc2ncc(Nc3cc(OC(F)F)[nH]n3)nc21
a: ≤ 6.30

q: Please give the measured pIC50 for this compound: C[C@@H](C1CCOCC1)n1ncc2ncc(Nc3cc(OC(F)F)[nH]n3)nc21
a: 6.30 to 7.00

====

# target: CDK1/Cyclin B1, GST-tag (Homo sapiens)
# Construct: GST
# measurement.description: CDK1/Cyclin B1 biochemical phosphorylation assay (Caliper mobility shift)
# recorded.conditions: apparent IC50; 1.0 mM ATP or ATP Km; 1.5 nM enzyme; 25° C.
pIC50: −log10 of the molar value.
Parameter: pIC50. Scope: all listed entries.

FC(F)Oc1cc(Nc2cnc3cnn(CC4CCC4)c3n2)n[nH]1 [Example 101]	6.30 to 7.00
O[C@H]1C[C@H](n2ncc3ncc(Nc4cc(OC(F)F)[nH]n4)nc32)C1 (single isomer, unassigned) [Example 145]	≤ 6.30
Cn1cncc1Cn1ncc2ncc(Nc3cc(OC(F)F)[nH]n3)nc21 [Example 131]	≤ 6.30

We next turn to a different molecule, shown below.
q: Please give the measured pIC50 for this molecule: COc1cc(Nc2cnc3cnn(C[C@H]4C[C@@H]4C#N)c3n2)n[nH]1 (single isomer, unassigned) [Example 197]
a: ≤ 6.30

====

# target: CDK2/Cyclin E (Homo sapiens)
# measurement.description: CDK2/Cyclin E biochemical phosphorylation assay (Caliper mobility shift)
# recorded.conditions: apparent IC50; 1.0 mM ATP or ATP Km; 1.25 nM enzyme; 25° C.; read-out: CDK2/cyclin E1 IC50
Parameter: IC50. Scope: all listed entries.

COc1cc(Nc2cnc3cnn(C[C@H]4C[C@@H](C)O[C@@H](C)C4)c3n2)n[nH]1 [Example 66]	≤ 0.01 µM
C[C@@H]([C@@H]1COCCO1)n1ncc2ncc(Nc3cc(OC(F)F)[nH]n3)nc21 (single isomer, unassigned) [Example 211]	0.03 to 0.1 µM
Fc1cncc(Cn2ncc3ncc(Nc4cc(OC(F)F)[nH]n4)nc32)c1 [Example 42]	0.02 to 0.03 µM
C[C@@H](c1cnccc1F)n1ncc2ncc(Nc3cc(OC(F)F)[nH]n3)nc21 (single isomer, unassigned) [Example 173]	0.02 to 0.03 µM
FC(F)Oc1cc(Nc2cnc3cnn(C[C@H]4CCCOC4)c3n2)n[nH]1 (single isomer, unassigned) [Example 142]	≤ 0.01 µM
COc1cc(Nc2cnc3cnn([C@H](C)C4CC4)c3n2)n[nH]1 [Example 73]	0.01 to 0.02 µM

q: Please give the measured IC50 for this compound: COc1cc(Nc2cnc3cnn(C(C)c4cccnn4)c3n2)n[nH]1 (single isomer, unassigned) [Example 33]
a: ≤ 0.01 µM

q: Please give the measured IC50 for this compound: C[C@H](c1cccnn1)n1ncc2ncc(Nc3cc(OC(F)F)[nH]n3)nc21 (single isomer, unassigned) [Example 25]
a: 0.03 to 0.1 µM

q: Please give the measured IC50 for this compound: FC(F)Oc1cc(Nc2cnc3cnn([C@H](C4CCOCC4)C4CC4)c3n2)n[nH]1 (single isomer, unassigned) [Example 158]
a: 0.03 to 0.1 µM

q: Please give the measured IC50 for this compound: C[C@@H](c1cncs1)n1ncc2ncc(Nc3cc(OC(F)F)[nH]n3)nc21 [Example 58]
a: ≤ 0.01 µM

q: Please give the measured IC50 for this compound: O[C@H]1CC[C@@H](n2ncc3ncc(Nc4cc(OC(F)F)[nH]n4)nc32)C1 (single isomer, unassigned) [Example 210]
a: > 0.1 µM

q: Please give the measured IC50 for this compound: COc1ncccc1[C@H](C)n1ncc2ncc(Nc3cc(OC(F)F)[nH]n3)nc21 [Example 59]
a: ≤ 0.01 µM

q: Please give the measured IC50 for this compound: FC(F)Oc1cc(Nc2cnc3cnn(C[C@@H]4CC45CC5)c3n2)n[nH]1 (racemic) [Example 109]
a: ≤ 0.01 µM

q: Please give the measured IC50 for this compound: FC(F)Oc1cc(Nc2cnc3cnn([C@@H](C(F)F)C4CCOCC4)c3n2)n[nH]1 (single isomer, unassigned) [Example 29]
a: ≤ 0.01 µM

q: Please give the measured IC50 for this compound: FC(F)Oc1cc(Nc2cnc3cnn(C[C@H]4C[C@@H]4F)c3n2)n[nH]1 (single isomer, unassigned) [Example 160]
a: 0.02 to 0.03 µM
